# reported pIC50; entries follow
- system.tested: MAO-A (Homo sapiens, UniProt P21397)
- Sequence (P21397 1-527): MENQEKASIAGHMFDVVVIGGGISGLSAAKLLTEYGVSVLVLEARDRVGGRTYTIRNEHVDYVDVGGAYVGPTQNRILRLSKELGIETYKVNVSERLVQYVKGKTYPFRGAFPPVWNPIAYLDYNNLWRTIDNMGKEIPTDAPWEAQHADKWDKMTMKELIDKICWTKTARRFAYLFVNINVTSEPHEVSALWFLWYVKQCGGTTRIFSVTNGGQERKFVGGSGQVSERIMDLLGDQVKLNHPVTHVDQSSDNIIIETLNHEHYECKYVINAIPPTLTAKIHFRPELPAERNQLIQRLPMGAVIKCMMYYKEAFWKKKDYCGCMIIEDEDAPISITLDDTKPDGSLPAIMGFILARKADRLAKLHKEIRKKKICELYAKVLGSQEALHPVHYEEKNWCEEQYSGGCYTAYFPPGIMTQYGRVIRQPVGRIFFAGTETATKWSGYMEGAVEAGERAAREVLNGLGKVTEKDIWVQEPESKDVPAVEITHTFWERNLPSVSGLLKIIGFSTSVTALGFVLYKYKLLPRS
pIC50: −log10 of the molar value.

Before answering, review these 2 worked examples.
{"compound": "O=C(Nc1ccc([C@@H]2C[C@H]2NCC2CC2)cc1)c1cc2ccccc2o1 (relative stereo)", "result": 5.09}
{"compound": "CN1CCN(c2cccc(C(=O)Nc3ccc([C@@H]4C[C@H]4NCC4CC4)cc3)c2)CC1 (relative stereo)", "result": "< 5.00"}

Now consider the entry below.
// recorded pIC50 for O=C(Nc1ccc([C@@H]2C[C@H]2NC2CCc3ccccc32)cc1)c1ccccc1 (relative stereo) : < 5.00

----------
- system.tested: human LSD1(171-852) (Homo sapiens, UniProt O60341)
- Construct: to give hLSD1(171-852) purified product; made in house; host or cells: Escherichia coli C43(DE3) pLysS
- assay.notes: Measurement of LSD1 inhibitory activity (time-resolved fluorescence, biotin-histone H3 mono methylated K4 peptide)
- Assay type: biochemical
- condition.info: read-out: LSD1 IC50 value
Counter-ions that a name gives are not always drawn.
# reported IC50; entries follow

Before answering, review these 3 worked examples.
{"molecule": "O=C(Nc1ccc([C@@H]2C[C@H]2NCc2ccccc2)cc1)c1cccc(Br)c1 (relative stereo) [Example 3]", "result": "< 100 nM"}
{"molecule": "O=C(Nc1ccc([C@@H]2C[C@H]2NCC2CC2)cc1)c1ccc(OC(F)(F)F)cc1 (relative stereo) [Example 108, hydrochloride]", "result": "< 100 nM"}
{"molecule": "COc1ccc(CN[C@@H]2C[C@H]2c2ccc(NC(=O)c3ccc(-c4ccccc4)cc3)cc2)cc1 (relative stereo) [Example 43]", "result": "110 nM"}

Summary: CS(=O)(=O)Nc1cccc(C(=O)Nc2ccc([C@@H]3C[C@H]3NCC3CC3)cc2)c1 (relative stereo) [Example 136, hydrochloride] , human LSD1(171-852) (Homo sapiens, UniProt O60341), IC50 = < 100 nM

Summary: O=C(Nc1ccc([C@@H]2C[C@H]2N(CC2CC2)CC2CC2)cc1)c1ccc(-c2ccccc2)cc1 (relative stereo) [Example 60, hydrochloride] , human LSD1(171-852) (Homo sapiens, UniProt O60341), IC50 = 1900 nM

Summary: O=C(Nc1ccc([C@@H]2C[C@H]2NCC2CC2)cc1)c1ccc(-c2ncccn2)cc1 (relative stereo) [Example 138, hydrochloride] , human LSD1(171-852) (Homo sapiens, UniProt O60341), IC50 = < 100 nM

----------
Target protein (sequence): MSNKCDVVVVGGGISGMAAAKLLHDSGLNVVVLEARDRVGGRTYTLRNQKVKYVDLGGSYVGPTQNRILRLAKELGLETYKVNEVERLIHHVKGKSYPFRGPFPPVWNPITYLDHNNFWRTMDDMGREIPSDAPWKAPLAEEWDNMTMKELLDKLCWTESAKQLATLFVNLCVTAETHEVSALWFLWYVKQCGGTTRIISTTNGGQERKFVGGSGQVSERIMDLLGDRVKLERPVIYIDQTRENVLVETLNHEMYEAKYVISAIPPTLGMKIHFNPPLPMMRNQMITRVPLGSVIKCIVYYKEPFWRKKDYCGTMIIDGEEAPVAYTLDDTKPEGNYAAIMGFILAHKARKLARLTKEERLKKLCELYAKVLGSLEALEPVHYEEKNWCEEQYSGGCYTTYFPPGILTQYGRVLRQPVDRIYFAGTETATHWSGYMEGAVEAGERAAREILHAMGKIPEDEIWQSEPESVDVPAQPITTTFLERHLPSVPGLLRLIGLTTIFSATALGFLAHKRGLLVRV
Structures can show the parent of a compound that is named as a salt.
# reported IC50; entries follow

Before answering, review these 5 worked examples.
{"compound": "O=C(N[C@H](Cc1ccccc1)C(=O)Nc1ccc(C2CC2NCc2ccccc2)cc1)OCc1ccccc1 (stereo in doubt) [Example 58, hydrochloride]", "IC50": "> 10 µM"}
{"compound": "CS(=O)(=O)Nc1ccc(C(=O)Nc2ccc([C@@H]3C[C@H]3NCC3CC3)cc2)cc1 (relative stereo) [Example 135, hydrochloride]", "IC50": "> 10 µM"}
{"compound": "CC(=O)N1CCC(N[C@@H]2C[C@H]2c2ccc(NC(=O)c3ccc(-c4ccccc4)cc3)cc2)CC1 (relative stereo) [Example 62, hydrochloride]", "IC50": "> 10 µM"}
{"compound": "Cc1c(C(=O)Nc2ccc([C@@H]3C[C@H]3NCC3CC3)cc2)cnn1-c1ccccc1 (relative stereo) [Example 121]", "IC50": "> 10 µM"}
{"compound": "O=C(Nc1ccc([C@@H]2C[C@H]2NCC2CC2)cc1)c1ccc(-n2cccn2)cc1 (relative stereo) [Example 94]", "IC50": "> 10 µM"}

// recorded IC50 for O=C(Nc1ccc([C@@H]2C[C@H]2NCC2CC2)cc1)c1cccc(C(F)(F)F)c1 (relative stereo) [Example 65, hydrochloride] : 9.6 µM

// recorded IC50 for O=C(Nc1ccc([C@@H]2C[C@H]2NC2CCN(C3CC3)CC2)cc1)c1cccc(C(F)(F)F)c1 (relative stereo) [Example 111, dihydrochloride] : > 10 µM

// recorded IC50 for O=C(Nc1ccc([C@@H]2C[C@H]2NC2CCNC(c3ccccc3)C2)cc1)c1cccc(C(F)(F)F)c1 (relative stereo) [Example 77, dihydrochloride] : > 10 µM

// recorded IC50 for COc1ccc(CN[C@@H]2C[C@H]2c2ccc(NC(=O)c3ccc(-c4ccccc4)cc3)cc2)cn1 (relative stereo) [Example 54] : 1.5 µM

// recorded IC50 for NS(=O)(=O)c1cccc(C(=O)Nc2ccc([C@@H]3C[C@H]3NCC3CC3)cc2)c1 (relative stereo) [Example 145, hydrochloride] : > 10 µM

// recorded IC50 for CCCc1ccc(-c2ccc(C(=O)Nc3ccc([C@@H]4C[C@H]4NCC4CC4)cc3)cc2)cc1 (relative stereo) [Example 116] : > 10 µM

// recorded IC50 for O=C(Nc1ccc([C@@H]2C[C@H]2NC2CCN(Cc3ccccc3)CC2)cc1)c1cccc(C(F)(F)F)c1 (relative stereo) [Example 74, dihydrochloride] : > 10 µM

----------
- system.tested: human LSD1(171-852) (Homo sapiens, UniProt O60341)
- Construct: to give hLSD1(171-852) purified product; made in house; host or cells: Escherichia coli C43(DE3) pLysS
- assay.notes: Measurement of LSD1 inhibitory activity (time-resolved fluorescence, biotin-histone H3 mono methylated K4 peptide)
- Assay type: biochemical
Where a name gives a salt, the structure may show the parent alone.
readout.kind: IC50

// recorded IC50 for CN1C2CCC1CC(N[C@@H]1C[C@H]1c1ccc(NC(=O)c3cccc(C(F)(F)F)c3)cc1)C2 (relative stereo) [Example 149, dihydrochloride] : < 100 nM

----------
MAO-A (Homo sapiens, UniProt P21397) IC50 data
Counter-ions that a name gives are not always drawn.

{"compound": "O=C(Nc1ccc([C@@H]2C[C@H]2NCC2CC2)cc1)c1ccc2nc(-c3ccco3)[nH]c2c1 (relative stereo)", "readout.kind": "IC50", "result": "> 10 µM"}
{"compound": "O=C(Nc1ccc([C@@H]2C[C@H]2NC2CCC(F)(F)CC2)cc1)c1cccc(C(F)(F)F)c1 (relative stereo) [Example 154, hydrochloride]", "readout.kind": "IC50", "result": "> 10 µM"}
{"compound": "O=C(Nc1ccc(C(=O)Nc2ccc([C@@H]3C[C@H]3NCC3CC3)cc2)cc1)c1ccccc1 (relative stereo) [Example 80, hydrochloride]", "readout.kind": "IC50", "result": "> 10 µM"}
{"compound": "CC(C)(C)c1ccc(-c2ccc(C(=O)Nc3ccc([C@@H]4C[C@H]4NCC4CC4)cc3)cc2)cc1 (relative stereo)", "readout.kind": "IC50", "result": "> 10 µM"}
{"compound": "O=C(Nc1ccc([C@@H]2C[C@H]2NCC2CC2)cc1)c1ccc(OCc2ccccc2)cc1 (relative stereo) [Example 71, hydrochloride]", "readout.kind": "IC50", "result": "> 10 µM"}
{"compound": "O=C(Nc1ccc([C@@H]2C[C@H]2NCC2CC2)cc1)c1cccc(Cn2cncn2)c1 (relative stereo) [Example 147, hydrochloride]", "readout.kind": "IC50", "result": "> 10 µM"}
{"compound": "CCCc1ccc(-c2ccc(C(=O)Nc3ccc([C@@H]4C[C@H]4NCC4CC4)cc3)cc2)cc1 (relative stereo)", "readout.kind": "IC50", "result": "> 10 µM"}
{"compound": "O=C(Nc1ccc([C@@H]2C[C@H]2NCC2CC2)cc1)c1ccccc1 (relative stereo) [Example 140, hydrochloride]", "readout.kind": "IC50", "result": "> 10 µM"}
{"compound": "O=C(Nc1ccc([C@@H]2C[C@H]2NCC2CC2)cc1)c1ccc(-c2ncccn2)cc1 (relative stereo) [Example 138, hydrochloride]", "readout.kind": "IC50", "result": "> 10 µM"}
{"compound": "O=C(Nc1ccc([C@@H]2C[C@H]2NCc2cc3cccnc3s2)cc1)c1cccc(C(F)(F)F)c1 (relative stereo) [Example 161, hydrochloride]", "readout.kind": "IC50", "result": "4.1 µM"}

Summary: O=C(Nc1ccc([C@@H]2C[C@H]2NCC2CC2)cc1)c1cccc(-n2ccnc2)c1 (relative stereo) [Example 148, hydrochloride] , MAO-A (Homo sapiens, UniProt P21397), IC50 = 8.3 µM

Summary: O=C(Nc1ccc([C@@H]2C[C@H]2NC2CCN(Cc3ccccc3)CC2)cc1)c1ccccc1 (relative stereo) , MAO-A (Homo sapiens, UniProt P21397), IC50 = > 10 µM

Summary: CN(C(=O)c1ccc(-c2ccccc2)cc1)c1ccc([C@@H]2C[C@H]2NCC2CC2)cc1 (relative stereo) [Example 64, hydrochloride] , MAO-A (Homo sapiens, UniProt P21397), IC50 = 8.5 µM
